tested on: DIV30; test: qHTS profiling for inhibitors of Plasmodium falciparum proliferation (AID 504749); further: nearly all actives have a fitted effect of over 60% in size; further: potency means the concentration at half of the fitted maximal effect; settings: P. falciparum in erythrocytes, SYBR Green DNA, 72 h; series mostly up to 28.7 µM
Inconclusive results are not listed. Activity calls are given as the source filed them. The call rests on the fitted dose curve; in most records, active means well fitted inhibition curve with a large enough effect; inconclusive means small, poorly fitted or top-dose-only effect; inactive means flat fitted curve, though single readings scatter.
assayReadout: Potency

>>> print(df.to_string())
                                   compound  assayreadout    recordedresult
0  COC(=O)[C@@H]1[C@@H]2C[C@H]3c4[nH]c5ccccc5c4CCN3C[C@@H]2CC[C@@H]1O       Potency          inactive
1  O=C1c2cccc3c2[C@@H](CCC3)CN1[C@@H]1CN2CCC1CC2       Potency          inactive
2  C/C=C1\C2C=C(C)CC1(N)c1ccc(=O)[nH]c1C2 (stereo unspecified)       Potency          inactive
3  CC(C)(O)c1ccccc1CC[C@H](SCC1(CC(=O)O)CC1)c1cccc(/C=C/c2ccc3ccc(Cl)cc3n2)c1       Potency          inactive
4  CC(=O)[C@H]1CC[C@H]2C3CC=C4C[C@@H](O)CC[C@]4(C)C3CC[C@]12C (stereo partly specified)       Potency          inactive
5  O=C(CC1NCCC[C@H]1O)Cn1cnc2cc(Br)c(Cl)cc2c1=O (stereo partly specified)       Potency  3.38 µM (active)

====

experiment: qHTS for Inhibitors of Plasmodium falciparum (HB3) proliferation (AID 504318); further: nearly all actives have a fitted effect of over 60% in size; conditions: P. falciparum HB3 in erythrocytes, SYBR Green DNA, 72 h; series mostly up to 7.21 µM
Inconclusive results are not listed. Activity calls are given as the source filed them. The call rests on the fitted dose curve; in most records, active means well fitted inhibition curve with a large enough effect; inconclusive means small, poorly fitted or top-dose-only effect; inactive means flat fitted curve, though single readings scatter.
Possible outcomes: true (1) (active), false (0) (inactive)

>>> df
                                   compound  classassignment
0  CC(C)(C)OC(=O)NCCCC1=CC2=CC(=O)C(C)(O)C(=O)C2=CO1 (centres undefined)        false (0)
1  COc1ccc(-c2nc3c(c4c2C[C@H](c2ccccc2)OC4)CN(S(=O)(=O)c2ccc(C)cc2)CC3)c(C)c1         true (1)
2     OC[C@H]1O[C@H](C#Cc2ccccc2)C=C[C@H]1O        false (0)
3  COC(=O)CCCC1=CC2=CC(=O)C(C)(OC(=O)c3cccs3)C(=O)C2=CN1CCCOC(C)C (centres undefined)        false (0)
4  O=c1n(-c2ccccc2)c(=O)n2n1CC[C@@H]1C(=NOC[C@@H](O)COCc3ccco3)[C@H]3O[C@H]3[C@@H](O)[C@H]12        false (0)
5  COC(=O)C1=NOC2(C=C(Br)C(OC)=C(Br)C2=O)C1 (centres undefined)        false (0)
6  CC#CCC1(C(=O)OC)C(=O)NC[C@H]1c1ccccc1 (some centres undefined)        false (0)
7  Cc1cc2c(c(=O)o1)[C@H]1O[C@](c3ccsc3)(Cc3cc(C#N)ccc31)O2        false (0)
8  COCCN1C(=O)NC(c2cccc(C(F)(F)F)c2)C(C(=O)OC)=C1C (centres undefined)        false (0)

====

experiment: Primary qHTS for small molecule stabilizers of the endoplasmic reticulum resident proteome: Secreted ER Calcium Modulated Protein (SERCaMP) assay (AID 1508630); details: SH-SY5Y GLuc-SERCaMP (Gaussia luciferase released on ER calcium loss) secretion, thapsigargin, luminescence; series mostly up to 38.4 µM; further: on the % scale 0 is the no-effect control and ±100 the full control effect
Results filed as inconclusive are left out. Activity calls are given as the source filed them. The call rests on the fitted dose curve; in most records, active means well fitted inhibition curve with a large enough effect; inconclusive means small, poorly fitted or top-dose-only effect; inactive means no such curve, though single readings can be large or run the other way.
assayReadout: activity change, negative = inhibition

>>> print(df.to_string())
                                    compound                  recordedresult
 0  CC(=O)N[C@@H](CSC/C=C(\C)CC/C=C(\C)CC/C=C(\C)CCC=C(C)C)C(=O)O                        inactive
 1      N[C@]1(C(=O)O)CCc2cc(P(=O)(O)O)ccc21                        inactive
 2           C[C@@H](CC(=O)O)[C@@H](N)C(=O)O                        inactive
 3             CN1CCN(CCc2ccc(Cl)c(Cl)c2)CC1                        inactive
 4  Nc1ncnc2c1ncn2[C@H]1O[C@@H](CSCC[C@@H](N)C(=O)O)[C@H](O)[C@@H]1O                        inactive
 5      CC/C=C\C/C=C\C/C=C\CCCCCCCCCCCC(=O)O   10.3% [at 3.88 µM] (inactive)
 6                       CSCC[C@@H](N)C(=O)O                        inactive
 7  CCCCCCCCCC(=O)OCC(CO)OC(=O)CCCCCCCCC (stereo unspecified)  -13.4% [at 3.88 µM] (inactive)
 8      CCCCC[C@H](O)CC(=O)CCc1ccc(O)c(OC)c1                        inactive
 9  CC1=C(/C=C/C(C)=C\C=C\C(C)=C\C(=O)O)C(C)(C)CCC1                        inactive
10     COc1ccccc1N1CCN(CCCCN2C(=O)CCC2=O)CC1                        inactive

====

target: Cytochrome P450 1A2 (Homo sapiens) (UniProt P05177); experiment: p450-cyp1a2 (AID 410); settings: recombinant CYP1A2, luciferin-ME demethylation, luminescence; series mostly up to 57 µM
Sequence (P05177 whole entry, looked up): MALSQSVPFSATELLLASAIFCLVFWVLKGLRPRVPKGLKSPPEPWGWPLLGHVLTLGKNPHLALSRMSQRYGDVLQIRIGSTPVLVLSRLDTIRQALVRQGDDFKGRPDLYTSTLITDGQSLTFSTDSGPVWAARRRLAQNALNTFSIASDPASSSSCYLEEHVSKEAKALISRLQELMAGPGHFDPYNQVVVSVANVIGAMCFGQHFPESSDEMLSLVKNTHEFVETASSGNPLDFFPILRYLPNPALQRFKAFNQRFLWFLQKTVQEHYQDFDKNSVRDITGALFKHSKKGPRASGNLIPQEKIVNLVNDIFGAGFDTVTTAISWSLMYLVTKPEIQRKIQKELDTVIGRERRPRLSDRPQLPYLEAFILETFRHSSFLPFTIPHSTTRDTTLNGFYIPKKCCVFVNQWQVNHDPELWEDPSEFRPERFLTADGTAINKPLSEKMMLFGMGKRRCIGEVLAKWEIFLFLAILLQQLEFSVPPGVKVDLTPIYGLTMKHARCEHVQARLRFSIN
Inconclusive results are not listed. Active and inactive are the calls of the source. Calls come from the whole dose curve.
Possible outcomes: y for active, n for inactive

smilesRepr	classAssignment
CC[C@]1(O)C[C@@H]2CN(CCc3c([nH]c4ccccc34)[C@](C(=O)OC)(c3cc4c(cc3OC)N(C=O)[C@H]3[C@@](O)(C(=O)OC)[C@H](C(=O)OC)[C@@]5(CC)C=CCN6CC[C@]43[C@H]65)C2)C1	n
N[C@@H](Cc1cc(-c2ccc(Cl)cc2Cl)cc(CP(=O)(O)O)c1O)C(=O)O	y
N[C@H](Cc1ccc(Cl)cc1)C(=O)O	y
OC[C@H]1NC[C@H](O)[C@@H](O)[C@H]1O	n
COc1cc(OC)c(C(=O)CCCCN2CCC3(CC2)NC(=O)NC3=O)cc1NS(=O)(=O)c1ccc(C(F)(F)F)cc1	n
CC(C)(C)NC[C@H](O)COc1cccc2[nH]c(=O)[nH]c12	n
N#Cc1cc2[nH]c(=O)c(=O)[nH]c2cc1[N+](=O)[O-]	y
COc1cccc(C=NC=Nc2cccc(OC)c2)c1	y
C=C[C@H](N)CCC(=O)O	n
CC[C@H](C)N(C)C(=O)c1cc2ccccc2c(-c2ccccc2Cl)n1	n
CCOC(=O)c1c(C)[nH]c2ccc3c(c12)CN1CCc2cc(OC)ccc2[C@@H]1O3	y

====

Tested on: Zika virus NS2B-NS3 protease
Experiment: Primary screen GU AMC qHTS for Zika virus inhibitors (AID 1347154);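 further: 0% = no-inhibitor control and -100% = no-enzyme control; nearly all actives have a fitted effect of over 70% in size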
Settings: Zika NS2B-NS3 unlinked protease, AMC fluorogenic substrate; series mostly up to 54.1 µM
Description: Avindra Nath, Ph.D., National Institute of Neurological Disorders and Stroke (NINDS), Bethesda, MD Radhakrishnan Padmanabhan, Ph.D., Georgetown University (GU), Washington D.C. Zika Virus causes congenital defects, including microcephaly and is associated with Guillain-Barre syndrome, eningoencephalitis and myelitis in infected adult. […]
Records with an inconclusive call do not appear. Activity calls are given as the source filed them. Calls follow the shape of the dose curve; as a rule, active = well fitted inhibition curve with a large enough effect; inconclusive = small, poorly fitted or top-dose-only effect; inactive = flat fitted curve, though single readings scatter.

smilesRepr	activity change, negative = inhibition
Cc1c(C(=O)N(C)C2CCCCC2)sc2nc3ccc(N)cc3n12	inactive
NS(=O)(=O)c1cc2c(cc1Cl)N[C@@H]([C@@H]1C[C@@H]3C=C[C@H]1C3)NS2(=O)=O	inactive
COc1ccccc1N1CCN(C[C@@H](O)COc2cccc3ccccc23)CC1	inactive
CC(C)C[C@H](NC(=O)[C@H](CCCCN)NC(=O)[C@H](CCCNC(=N)N)NC(=O)[C@H](C)NC(=O)[C@H](CO)NC(=O)[C@H](CCCCN)NC(=O)[C@H](CCCNC(=N)N)NC(=O)[C@H](C)NC(=O)CNC(=O)[C@@H](NC(=O)[C@H](Cc1ccccc1)NC(=O)CNC(=O)CNC(=O)[C@@H](N)Cc1ccccc1)[C@H](C)O)C(=O)N[C@@H](C)C(=O)N[C@@H](CC(N)=O)C(=O)N[C@@H](CCC(N)=O)C(=O)O	-13.5% [at 6.83 µM] (inactive)
CCCCCCCC/C=C\CCCCCCCC(=O)OC[C@@H](O)COP(=O)(O)O	20.5% [at 6.83 µM] (inactive)
CC(N)=NCCCC[C@H](N)C(=O)O	inactive
O=C(Nc1ccccc1)[C@@]12C[C@@H]1/C(=N/O)c1ccccc1O2	inactive

====

biological target: Cytochrome P450 2C9 (Homo sapiens) (UniProt P11712); test: qHTS Assay for Inhibitors and Substrates of Cytochrome P450 2C9 (AID 883); settings: recombinant CYP2C9, luciferin-H luminescence, 60 min; series mostly up to 57.1 µM; further: nearly all actives have a fitted effect of over 60% in size
Sequence (P11712 whole entry, looked up): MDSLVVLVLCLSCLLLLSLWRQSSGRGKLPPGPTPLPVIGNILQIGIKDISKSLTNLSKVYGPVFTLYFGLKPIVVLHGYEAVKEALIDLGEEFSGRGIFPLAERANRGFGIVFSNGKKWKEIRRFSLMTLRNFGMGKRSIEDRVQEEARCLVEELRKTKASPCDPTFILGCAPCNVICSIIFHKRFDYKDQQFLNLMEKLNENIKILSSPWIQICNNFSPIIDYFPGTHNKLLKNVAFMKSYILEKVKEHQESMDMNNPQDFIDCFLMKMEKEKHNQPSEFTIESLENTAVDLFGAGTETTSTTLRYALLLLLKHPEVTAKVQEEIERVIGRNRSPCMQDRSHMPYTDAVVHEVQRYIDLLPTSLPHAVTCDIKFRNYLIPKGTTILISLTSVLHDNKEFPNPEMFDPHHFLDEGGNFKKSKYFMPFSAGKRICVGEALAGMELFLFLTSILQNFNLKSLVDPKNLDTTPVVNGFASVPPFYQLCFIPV
Records with an inconclusive call do not appear. Calls of active or inactive are those of the source. Calls come from the whole dose curve; as a rule, active = well fitted inhibition curve with a large enough effect; inconclusive = small, poorly fitted or top-dose-only effect; inactive = no such curve, though single readings can be large or run the other way.
Possible outcomes: T (active), F (inactive)

>>> df
                                    compound  classassignment
 0                        O=C(O)[C@H]1CCCNC1                F
 1               N[C@H](Cc1ccc(Cl)cc1)C(=O)O                F
 2        CCCCOc1cc(C[C@@H]2CNC(=O)N2)ccc1OC                F
 3        CCCCOC(=O)c1cc2c(cn1)[nH]c1ccccc12                T
 4  CCS(=O)(=O)N1CCC[C@H]2CN3CCc4cc(OC)ccc4[C@@H]3C[C@@H]21                F
 5  CCCCCCCC/C=C\CCCCCCCC(=O)N[C@@H](CO)Cc1ccc(O)cc1                F
 6  COc1cc(-c2ccc(N=Nc3ccc4c(S(=O)(=O)O)cc(S(=O)(=O)O)c(N)c4c3O)c(OC)c2)ccc1N=Nc1ccc2c(S(=O)(=O)O)cc(S(=O)(=O)O)c(N)c2c1O                F
 7  CCCn1c(=O)[nH]c2nc(-c3ccc(S(=O)(=O)O)cc3)[nH]c2c1=O                F
 8   CN1Cc2c(C(=O)OC(C)(C)C)ncn2-c2ccsc2C1=O                T
 9  N[C@H](CCC(=O)N[C@H](CSN=O)C(=O)NCC(=O)O)C(=O)O                T
10  C[C@@H](NCc1cc(Br)cc2[nH]c(=O)c(=O)[nH]c12)P(=O)(O)O                F
11       NCCCCCCNS(=O)(=O)c1cccc2c(Cl)cccc12                T
12  NC1(C(=O)O)C[C@H](C(=O)O)[C@H](C(=O)O)C1 (stereo partly drawn)                T
13   COc1ccc(/C=C\C(=O)Nc2ccccc2C(=O)O)cc1OC                F
14  C=C[C@@]1(C)CC(=O)[C@@]2(O)[C@@]3(C)[C@@H](O)CCC(C)(C)[C@@H]3[C@H](OC(=O)CCN(C)C)[C@H](OC(C)=O)[C@@]2(C)O1                T
15  CCCCCCCCCCCCC/C=C\[C@@H](O)[C@H](CO)NC(C)=O                T
16  COc1ccccc1N1CCN(C[C@@H]2CN3C(=O)N(C)c4ccccc4C3=N2)CC1                F
17      COc1ccc(-c2ccc(=N)n(CCCC(=O)O)n2)cc1                T
18            N#CCCN(CC#Cc1ccccc1)OCc1ccccc1                T
19     COc1ccccc1N1CCN(CCCCN2C(=O)CCC2=O)CC1                T
20  O=C1CCCC=C1[C@@H](O)CCOC(c1ccccc1)(c1ccccc1)c1ccccc1                T
21  CSc1cc2c(cc1C(F)(F)F)N(C(=O)Nc1cccnc1)CC2                T
22             CO[C@]1(C2=NCCN2)COc2ccccc2O1                F
